Target: T1, human Jagged 1-Fc (extracellular domain of human Jagged 1 fused to the Fc portion of human IgG1); R&D Systems … (human, UniProt P78504 34-1067)
T1 construct: extracellular domain; Bought reagent; also called hJag1; h Jagged 1; not shown: Fc portion of human IgG1
Assay: BLI (Octet), Jagged-Fc on anti-human Fc tips, Fab in solution
Description: Off rates for individual Fabs were measured using an Octet (ForteBio, Menlo Park, Calif.). […] Following a wash, the loaded tips were exposed to 25 μM Fab until binding had reached equilibrium. The tips were then removed to a fresh solution with no Fab, and the rate of Fab dissociation was measured.
Measured koff, listed per entry.
Kindly answer with a numeric value in s⁻¹, unit omitted.

Past entries and their recorded results:
anti-Jagged 13 Fab (Fab, V domains shown, Fab expressed in E. coli; also called Jag13) VH: EVQLLESGGGLVQPGGSLRLSCAASGFTFSSYAMSWVRQAPGKGLEWVSSIETQGPTTLYADSVKGRFTISRDNSKNTLYLQMNSLRAEDTAVYYCAKTSSAFDYWGQGTLVTVSS VL: DIQMTQSPSSLSASVGDRVTITCRASQSISSYLNWYQQKPGKAPKLLIYASSLQSGVPSRFSGSGSGTDFTLTIGSLQPEDFATYYCQQNVATPLTFGQGTKVEIKR
0.022
anti-Jagged 32 Fab (Fab, V domains shown, Fab expressed in E. coli; also called Jag32) VH: EVQLLESGGGLVQPGGSLRLSCAASGFTFSSYAMSWVRQAPGKGLEWVSSIEQMGWQTYYADSVKGRFTISRDNSKNTLYLQMNSLRAEDTAVYYCAKSAAAFDYWGQGTLVTVSS VL: DIQMTQSPSSLSASVGDRVTITCRASQSISSYLNWYQQKPGKAPKLLIYAASLQSGVPSRFSGSGSGTDFTLTISSLQPEDFATYYCQQTVVAPLTFGQGTKVEIKR
0.027

Please look at the following binder next.
Prompt: So what's the measured koff for this one? 6B7 Fab (Fab, V domains shown, C-terminally His-tagged Fab from the periplasm of E. coli) VH: EVQLLESGGGLVQPGGSLRLSCAASGFTFSSYAMSWVRQAPGKGLEWVSSIDEMGWQTYYADSVKGRFTISRDNSKNTLYLQMNSLRAEDTAVYYCAKSAAAFDYWGQGTLVTVSS VL: DIQMTQSPSSLSASVGDRVTITCRASQSISSYLNWYQQKPGKAPKLLIYAASSLQSGVPSRFSGSGSGTDFTLTISSLQPEDFATYYCQQALVAPLTFGQGTKVEIKR
Response: 0.00035
